TGT: Human M4 (Homo sapiens, UniProt P08173)
Sequence (P08173 1-479): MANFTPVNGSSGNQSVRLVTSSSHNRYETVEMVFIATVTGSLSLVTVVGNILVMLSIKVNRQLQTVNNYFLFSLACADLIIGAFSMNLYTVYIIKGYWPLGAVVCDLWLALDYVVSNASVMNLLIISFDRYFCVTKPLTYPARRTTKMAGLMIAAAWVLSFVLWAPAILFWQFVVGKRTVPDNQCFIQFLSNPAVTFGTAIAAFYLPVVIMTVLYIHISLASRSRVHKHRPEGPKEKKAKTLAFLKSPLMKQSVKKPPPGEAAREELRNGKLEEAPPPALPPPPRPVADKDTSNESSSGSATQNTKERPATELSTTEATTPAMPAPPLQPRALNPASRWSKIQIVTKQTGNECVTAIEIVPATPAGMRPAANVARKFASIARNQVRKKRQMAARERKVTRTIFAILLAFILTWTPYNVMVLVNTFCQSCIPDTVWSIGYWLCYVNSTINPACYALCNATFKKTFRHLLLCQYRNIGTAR
EXPERIMENT: mAChR M4 cell-based functional assay (calcium flux, antagonism of EC80 acetylcholine response)
RUN_CONDITIONS: M4/Gqi5/CHO-K1 cells; decrease of response elicited by EC80 acetylcholine
pIC50: −log10 of the molar value.
Outcome label depends on pIC50 relative to 8: at/above gives yes (1), below gives no (0).

For orientation, consider the following solved cases.
Fc1cc(F)c(F)c(-c2nnc(N[C@H]3C[C@@H]4CN(C[C@@H]5COCCO5)C[C@@H]4C3)cc2C(F)F)c1
yes (1)
[2H]C([2H])(C1CCOCC1)N1C[C@H]2C[C@H](Nc3nnc(-c4cc(F)ccc4F)cc3C)C[C@H]2C1
yes (1)
Cc1c(-c2cc(F)ccc2Cl)nnc(N[C@H]2C[C@@H]3CN(CC4CCOCC4)C[C@@H]3C2)c1C#N
yes (1)

State whether the measured pIC50 reaches 8, counting equality as reaching it, for "FC(F)c1cc(-c2ccccc2OC(F)(F)F)nnc1N[C@H]1C[C@@H]2CN(CC3CCOCC3)C[C@@H]2C1"
no (0)

# check: pIC50 of "[2H]C([2H])(C1CCOCC1)N1C[C@H]2C[C@H](Nc3nnc(-c4cc(F)ccc4F)cc3C3CC3)C[C@H]2C1" is greater than or equal to 8
no (0)

Could you verify whether the entry "COc1cc(-c2cc3cn(C)nc3cc2F)nnc1N[C@H]1C[C@@H]2CN(CC3CCOCC3)C[C@@H]2C1" shows pIC50 of no less than 8?
no (0)
